meta.source: ChEMBL document CHEMBL1139273

- assay_explanation: Volume of distribution at steady state in Sprague-Dawley rat at 1 mg/kg, iv and 1 mg/kg, po
- Format: ADME, organism-based
- measurement_conditions: in vivo, read-out: Vdss
Entry flag: 1 (yes) if Vd reaches 3 L/kg; 0 (no) if it does not.

See these solved cases before continuing.
compound: CCN(CC(O)(CNC(=O)c1cnn(-c2ccc(F)cc2)c1N)C(F)(F)F)C(=O)c1ccccc1S(C)(=O)=O (racemic)
class: 1 (yes)
--
compound: CCN(CC(O)(CNC(=O)c1cnn(-c2ccc(F)cc2)c1N)C(F)(F)F)C(=O)c1c(F)cccc1S(C)(=O)=O (racemic)
class: 0 (no)
--
compound: Nc1c(C(=O)NCC(O)(CN(CCO)C(=O)c2c(F)cccc2F)C(F)(F)F)cnn1-c1ccc(F)cc1 (centres undefined)
class: 0 (no)
--
compound: CCN(CC(O)(CNC(=O)c1cnn(-c2ccc(F)cc2)c1N)C(F)(F)F)C(=O)c1ccccc1Cl (racemic)
class: 1 (yes)
--
compound: CCN(CC(O)(CNC(=O)c1cnn(-c2ccc(F)cc2)c1N)C(F)(F)F)C(=O)c1ccccc1 (racemic)
class: 0 (no)
--
compound: CCCN(CC(O)(CNC(=O)c1cnn(-c2ccc(F)cc2)c1N)C(F)(F)F)C(=O)c1c(F)cccc1F (racemic)
class: 1 (yes)

Can Nc1c(C(=O)NCC(O)(CN(CCF)C(=O)c2c(F)cccc2F)C(F)(F)F)cnn1-c1ccc(F)cc1 (racemic) be said to have Vd at or above 3 L/kg? 0 (no)

Is the recorded value of Vd equal to or greater than 3 L/kg for this compound? CCN(CC(O)(CNC(=O)c1cnn(-c2ccc(F)cc2)c1N)C(F)(F)F)C(=O)c1ncccc1Cl (racemic) 0 (no)

Record CCN(CC(O)(CNC(=O)c1cnn(-c2ccc(F)cc2)c1N)C(F)(F)F)C(=O)c1c(F)cccc1F (centres undefined) ; criterion: Vd no lower than 3 L/kg. Met? 0 (no)

---

These records show IC50 for Cytochrome P450 2D6 (Homo sapiens).
# output: bare number, implied unit µM

compound: CCN(CC(O)(CNC(=O)c1cnn(-c2ccc(F)cc2)c1N)C(F)(F)F)C(=O)c1c(Cl)cccc1Cl (stereo not given)
IC50 [µM]: 89

compound: Nc1c(C(=O)NCC(O)(CN(CCF)C(=O)c2c(F)cccc2F)C(F)(F)F)cnn1-c1ccc(F)cc1 (racemic)
IC50 [µM]: 20

compound: Nc1c(C(=O)NCC(O)(CN(CCO)C(=O)c2c(Cl)cccc2Cl)C(F)(F)F)cnn1-c1ccc(F)cc1 (stereo not given)
IC50 [µM]: 54

Name the recorded IC50 of CCN(CC(O)(CNC(=O)c1cnn(-c2ccc(F)cc2)c1N)C(F)(F)F)C(=O)c1ncccc1Cl (stereo not given) , assay system Cytochrome P450 2D6 (Homo sapiens). 100

State the measured IC50 (Cytochrome P450 2D6 (Homo sapiens)) of CCN(CC(O)(CNC(=O)c1cnn(-c2ccc(F)cc2)c1N)C(F)(F)F)C(=O)c1ccccc1Cl (stereo in doubt; 13d) 27

---

Dear all, this message contains IC50 results, target or system Cytochrome P450 2C9 (Homo sapiens, UniProt P11712).
Kindly provide the numeric value in µM only, without the unit symbol.

compound: Nc1c(C(=O)NCC(O)(CN(CCF)C(=O)c2c(F)cccc2F)C(F)(F)F)cnn1-c1ccc(F)cc1 (racemic)
IC50 (µM): 4
--
compound: Nc1c(C(=O)NCC(O)(CN(CCO)C(=O)c2c(Cl)cccc2Cl)C(F)(F)F)cnn1-c1ccc(F)cc1 (stereo not given)
IC50 (µM): 3
--
compound: CCN(CC(O)(CNC(=O)c1cnn(-c2ccc(F)cc2)c1N)C(F)(F)F)C(=O)c1ccccc1S(C)(=O)=O (stereo not given)
IC50 (µM): 23
--
compound: CCN(CC(O)(CNC(=O)c1cnn(-c2ccc(F)cc2)c1N)C(F)(F)F)C(=O)c1c(Cl)cccc1Cl (stereo not given)
IC50 (µM): 0.8

Read the next record carefully.
Tell me IC50 reported for CCN(CC(O)(CNC(=O)c1cnn(-c2ccc(F)cc2)c1N)C(F)(F)F)C(=O)c1c(F)cccc1F (stereo not given) 8

---

Cytochrome P450 1A2 (Homo sapiens) IC50 data
Sequence (P05177 whole entry): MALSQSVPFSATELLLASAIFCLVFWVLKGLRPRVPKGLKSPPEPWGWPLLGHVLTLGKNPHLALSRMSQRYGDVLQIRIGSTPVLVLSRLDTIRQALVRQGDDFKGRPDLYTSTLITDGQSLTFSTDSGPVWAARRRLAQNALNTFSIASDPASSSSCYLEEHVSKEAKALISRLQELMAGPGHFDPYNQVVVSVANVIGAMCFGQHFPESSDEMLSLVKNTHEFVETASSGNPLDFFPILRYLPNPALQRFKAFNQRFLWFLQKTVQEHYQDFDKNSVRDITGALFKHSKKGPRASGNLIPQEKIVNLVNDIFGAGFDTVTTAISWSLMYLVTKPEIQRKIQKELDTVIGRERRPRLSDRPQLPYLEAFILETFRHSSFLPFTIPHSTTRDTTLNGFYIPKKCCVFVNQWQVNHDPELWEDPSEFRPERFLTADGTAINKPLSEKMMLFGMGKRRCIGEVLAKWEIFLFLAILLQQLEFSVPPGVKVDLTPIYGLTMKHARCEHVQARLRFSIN
Express it in µM; write the number only.

molecule: CCN(CC(O)(CNC(=O)c1cnn(-c2ccc(F)cc2)c1N)C(F)(F)F)C(=O)c1ccccc1Cl (stereo in doubt; 13e)
observed_measurement: 100

Give IC50; test system Cytochrome P450 1A2 (Homo sapiens); molecule CCN(CC(O)(CNC(=O)c1cnn(-c2ccc(F)cc2)c1N)C(F)(F)F)C(=O)c1c(F)cccc1F (stereo unspecified) 100

Under Cytochrome P450 1A2 (Homo sapiens), report IC50 for CCN(CC(O)(CNC(=O)c1cnn(-c2ccc(F)cc2)c1N)C(F)(F)F)C(=O)c1ccccc1Cl (stereo in doubt; 13d) 100

---

# key: entry, value: IC50
- assay_explanation: Inhibition of TNF-induced NF-kappaB activation in human A549 cells after 15 hrs
- measurement_conditions: Homo sapiens, A549, 15 h, read-out: pIC50 (converted)
Answer by giving the amount and then stating its unit.

These recorded examples may help you get a feel for the data.
compound: CCN(CC(O)(CNC(=O)c1cnn(-c2ccc(F)cc2)c1N)C(F)(F)F)C(=O)c1ccccc1F (stereo not drawn)
IC50: 12.6 nM
--
compound: CCN(CC(O)(CNC(=O)c1cnn(-c2ccc(F)cc2)c1N)C(F)(F)F)C(=O)c1cccc(F)c1Cl (racemic)
IC50: 20 nM

Could you now look at the following compound, please?
Consider the compound CN(CC(O)(CNC(=O)c1cnn(-c2ccc(F)cc2)c1N)C(F)(F)F)C(=O)c1c(F)cccc1F (racemic) and give its recorded IC50. 50.1 nM

---

- assay_explanation: Inhibition of TNF-induced NF-kappaB activation in human A549 cells after 15 hrs
- measurement_conditions: Homo sapiens, A549, 15 h, read-out: pIC50 (converted)
Attribute: IC50
All answers are understood in nM, so give the number only.

Some solved cases for reference:
molecule: CCN(CC(O)(CNC(=O)c1cnn(-c2ccc(F)cc2)c1N)C(F)(F)F)C(=O)c1c(F)cccc1S(C)(=O)=O (racemic)
unit_label: nM
IC50: 10
//
molecule: Nc1c(C(=O)NCC(O)(CN(CCF)C(=O)c2c(F)cccc2F)C(F)(F)F)cnn1-c1ccc(F)cc1 (racemic)
unit_label: nM
IC50: 10
//
molecule: CCN(CC(O)(CNC(=O)c1cnn(-c2ccc(F)cc2)c1N)C(F)(F)F)C(=O)c1ccc2[nH]ccc2c1 (stereo unspecified)
unit_label: nM
IC50: 1
//
molecule: CCN(CC(O)(CNC(=O)c1cnn(-c2ccc(F)cc2)c1N)C(F)(F)F)C(=O)c1cccc(Cl)c1 (racemic)
unit_label: nM
IC50: 31.6
//
molecule: Nc1c(C(=O)NCC(O)(CNC(=O)c2c(F)cccc2F)C(F)(F)F)cnn1-c1ccc(F)cc1 (racemic)
unit_label: nM
IC50: 316

Hello, please tell me recorded IC50 for this one: CCN(CC(O)(CNC(=O)c1cnn(-c2ccc(F)cc2)c1N)C(F)(F)F)C(=O)c1ccccc1S(C)(=O)=O (stereo unspecified) 20

Quote IC50 reported for CCN(CC(O)(CNC(=O)c1cnn(-c2ccc(F)cc2)c1N)C(F)(F)F)C(=O)c1c(Cl)cc(Cl)cc1Cl (racemic) please. 25.1

// fetch IC50 given entry Nc1c(C(=O)NCC(O)(CN(CCO)C(=O)c2c(F)cccc2F)C(F)(F)F)cnn1-c1ccc(F)cc1 (stereo unspecified) 20

Quick one: give measured IC50 for CCN(CC(O)(CNC(=O)c1cnn(-c2ccc(F)cc2)c1N)C(F)(F)F)C(=O)c1c(F)cccc1F (stereo unspecified) 2.51

Determine its reported IC50: CCN(CC(O)(CNC(=O)c1cnn(-c2ccc(F)cc2)c1N)C(F)(F)F)C(=O)c1cccnc1Cl (racemic) 251

Write down IC50 measured for item CCN(CC(O)(CNC(=O)c1cnn(-c2ccc(F)cc2)c1N)C(F)(F)F)C(=O)c1ncccc1Cl (stereo unspecified) 10

---

- assay_explanation: Clearance in Sprague-Dawley rat at 1 mg/kg, iv and 1 mg/kg, po
- Type: ADME, organism-based
- measurement_conditions: in vivo
Catalogue of clearance readings, one per entry.
Output spec: scalar in mL/min/kg, unitless text.

Below, each entry is followed by its recorded clearance result.
compound: CCN(CC(O)(CNC(=O)c1cnn(-c2ccc(F)cc2)c1N)C(F)(F)F)C(=O)c1c(F)cccc1S(C)(=O)=O (racemic)
measurement_kind: clearance
observed_measurement: 9
//
compound: CCCN(CC(O)(CNC(=O)c1cnn(-c2ccc(F)cc2)c1N)C(F)(F)F)C(=O)c1c(F)cccc1F (racemic)
measurement_kind: clearance
observed_measurement: 36
//
compound: CCN(CC(O)(CNC(=O)c1cnn(-c2ccc(F)cc2)c1N)C(F)(F)F)C(=O)c1ccccc1Cl (racemic)
measurement_kind: clearance
observed_measurement: 32
//
compound: CCN(CC(O)(CNC(=O)c1cnn(-c2ccc(F)cc2)c1N)C(F)(F)F)C(=O)c1ncccc1Cl (racemic)
measurement_kind: clearance
observed_measurement: 23
//
compound: CCN(CC(O)(CNC(=O)c1cnn(-c2ccc(F)cc2)c1N)C(F)(F)F)C(=O)c1ccccc1 (racemic)
measurement_kind: clearance
observed_measurement: 21

Okay, now this compound:
Return the recorded clearance value; entry: Nc1c(C(=O)NCC(O)(CN(CCF)C(=O)c2c(F)cccc2F)C(F)(F)F)cnn1-c1ccc(F)cc1 (racemic) 21
